tested on: Candida albicans; details: 20 µM
Description: Antifungal activity against Candida albicans ATCC 90028 (CO-ADD:FG_001); MIC in YNB media using NBS plates, by OD630
Results with a measured potency or affinity are listed apart.
Measured Inhibition, listed per entry for reference.
Endpoint Label: Inhibition (%)

>>> assay_result("CC12CCC(C(NC(=S)NN)C1=O)C2(C)C (stereo unspecified)")
1.53
>>> assay_result("CC1=NC2=CC=CC3=NC(C(Cl)(Cl)Cl)=NC(=N1)N23")
1.15
>>> assay_result("CN1C=C/C(=C/[N+](=O)[O-])N(C)C1=O")
1.05
>>> assay_result("CCOC(=O)CCCN(c1[nH]c(C)c(C)c1C#N)S(=O)(=O)c1ccc(C)cc1")
-2.66
>>> assay_result("CCOC(=O)c1c(C)oc(C)c(C(=O)OCC)c1=O")
0.83
>>> assay_result("COC1=CC(C)C2CC3OC(O)CC4C(C)=C(OC)C(=O)C(C2(C)C1=O)C34C (stereo unspecified)")
3.92

###

Measured Inhibition, listed per entry for reference.
tested on: Staphylococcus aureus; test: Antibacterial activity against Staphylococcus aureus MRSA ATCC 43300 (CO-ADD:GP_020); MIC in CAMBH media using NBS plates, by Resazurin F(560/590); format: functional; conditions: Concentration 20 uM, ASSAY_TEST Inhibition of Bacterial Growth, detection method Resazurin, Fluorescence (ex560/em590), MEDIA CAMHB, plate type 384well, CORNING #3640, time 18 hr
Endpoint Label: Inhibition (%)

>>> assay_result("Fc1ccc(-c2cc(-c3cccs3)cc(-c3ccccc3)n2)cc1")
2.48
>>> assay_result("Cc1c(C#N)c2n(c1C)CCCC(=O)N2")
39.05
>>> assay_result("O=C1C2C3C=CC(O3)C2C(=O)N1Nc1ccccc1 (stereo not given)")
-4
>>> assay_result("Cc1ccc(S(=O)(=O)Oc2cc(N)c3c(n2)CCC3)cc1")
2.13
>>> assay_result("O=C(Oc1cccnc1O)c1cccc(Cl)c1")
-7.64
>>> assay_result("O=C(O)CCc1cccnc1")
18.41
>>> assay_result("Clc1ccccc1-c1nc2ccccc2[nH]1")
11.4
>>> assay_result("Cc1ccc(NC(=S)NC(=O)c2ccccc2)cc1NC(=S)NC(=O)c1ccccc1")
23.47
>>> assay_result("N=C(N)n1c(N)nc2ccccc2c1=O")
-3.84
>>> assay_result("O=c1oc(-c2ccccc2)c(-c2ccccc2)c2ccccc12")
13.22
>>> assay_result("CC(=O)/C=C(\\C)Nc1ccccc1O")
8.26
>>> assay_result("CN(C)S(=O)(=O)c1ccc(N)c([N+](=O)[O-])c1")
-6.85
>>> assay_result("CC1=CC(C)(C(Cl)(Cl)Cl)C(C)=C/C1=N/O (stereo not given)")
1.65
>>> assay_result("Cc1nc(Nc2ccc(F)cc2)nc(Nc2ccc(F)cc2)c1[N+](=O)[O-]")
16.01
>>> assay_result("N#CC1=C(Nc2ccccc2Cl)SC(c2ccncc2)NC1=O (stereo not given)")
-1.66
>>> assay_result("CCOC(=O)N1CCc2cc(OC)c(OC)c3c2c1cc1cc(OC)c(OC)cc13")
-2.61
>>> assay_result("O=[N+]([O-])c1c(N2CCN(CCO)CC2)nc2ccccn12")
9.01
>>> assay_result("CCCOc1nc2c(c(=O)n(C)c(=O)n2C)n1C")
17.4
>>> assay_result("C=CCN=C(S)Nc1cccc([N+](=O)[O-])c1")
-6.7
>>> assay_result("C#C[C@]1(O)CC[C@H]2[C@@H]3CCC4=Cc5oncc5C[C@]4(C)[C@H]3CC[C@@]21C")
-10.91
>>> assay_result("Cc1nn(-c2ccccc2)c2c1C(c1ccc([N+](=O)[O-])cc1)C(C#N)=C(N)O2 (stereo not given)")
11.47
>>> assay_result("O=C(c1ccc(Cl)nc1)c1cccs1")
-3.15
>>> assay_result("CCOc1ccc(/C=C2\\NC(=S)NC2=O)cc1")
4.57
>>> assay_result("Cc1cc2c(cc1C)N(C(=O)CCl)CC(=O)N2")
-15.91
>>> assay_result("CC12CCC(C1)C(C)(C)C2OC(=O)c1ccccc1C(=O)O (stereo not given)")
7.81

Data origin: ChEMBL document CHEMBL4296182
